- measurement notes: chemical genetic growth profiling, strain panel (AID 1159580);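 note: tested at 20 µM; growth read once vehicle control cultures reached saturation at 30 °C; 1 = growth at the plate median or of vehicle wells; lower values mean less growth of the strain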
- assay setup: S. cerevisiae deletion strains, growth OD, locus YJL134W, strain LCB3
Hit rate of the full screen: of about 5,500 compounds, about 2,000 (36%) were called active. Roughly 18% stayed inconclusive and do not appear here. Cut-off read from the data, not from the text of the source: active = normalized growth mostly below about 0.91 (no sharp cut-off); inconclusive = no clear call, values can overlap the other calls; inactive = mostly above about 0.92. Some of the results follow.
Pick one and only one: 1 for active, -1 for inactive

What outcome does the record of this test show for O[C@H]1C=C2CCN3Cc4cc5c(cc4C(C23)[C@@H]1O)OCO5 (some centres not stated) ? 1

What outcome does the record of this test show for CC(=O)O[C@]1(C(C)=O)CCC2C3C=C(C)C4=CC(=O)CCC4(C)C3CCC21C (some centres not stated) ? -1

What outcome does the record of this test show for CCOC(=O)/C=C(\C)OP(=O)(OC)OC ? -1

What outcome does the record of this test show for c1ccc(CN(CC2=NCCN2)c2ccccc2)cc1 ? -1

What outcome does the record of this test show for CN=C(NC#N)NCCSCc1nc[nH]c1C ? -1

What outcome does the record of this test show for NC(=O)c1ncn([C@@H]2O[C@H](CO)[C@@H](O)[C@H]2O)c1O ? -1

What outcome does the record of this test show for O=C(O)c1ccccc1OP(=O)(O)O ? -1

What outcome does the record of this test show for C[CH2][Hg][S]c1ccccc1C(=O)O ? 1

What outcome does the record of this test show for Oc1ccc(O)cc1 ? -1

What outcome does the record of this test show for CCCCCC(=O)O[C@]1(C(C)=O)CCC2C3CCC4=CC(=O)CC[C@]4(C)C3CC[C@@]21C (some centres not stated) ? -1

What outcome does the record of this test show for O=C(/C=C/C=C/c1ccc2c(c1)OCO2)N1CCCCC1 ? -1

What outcome does the record of this test show for CN1Cc2c(ccc3c2OCO3)C2C(O)Cc3cc4c(cc3C21)OCO4 (configuration not stated) ? -1
